# SYSTEM_NAME: Dihydrodipicolinate synthase (Streptomyces coelicolor (strain ATCC BAA-471 / A3(2) / M145))
# MEASUREMENT_NOTES: Inhibitory activity against dihydrodipicolinic acid synthase
MEASURE: Ki (mM)
Please state the figure in mM; there is no need to write the unit.

Problem: Quick one: Ki for N#C[C@@H]1CCC[C@@H](C#N)N1 ?
Solution: 6.3

* * *

# SYSTEM_NAME: Dihydrodipicolinate synthase (Streptomyces coelicolor (strain ATCC BAA-471 / A3(2) / M145), UniProt Q93RY0)
# Sequence (Q93RY0 whole entry): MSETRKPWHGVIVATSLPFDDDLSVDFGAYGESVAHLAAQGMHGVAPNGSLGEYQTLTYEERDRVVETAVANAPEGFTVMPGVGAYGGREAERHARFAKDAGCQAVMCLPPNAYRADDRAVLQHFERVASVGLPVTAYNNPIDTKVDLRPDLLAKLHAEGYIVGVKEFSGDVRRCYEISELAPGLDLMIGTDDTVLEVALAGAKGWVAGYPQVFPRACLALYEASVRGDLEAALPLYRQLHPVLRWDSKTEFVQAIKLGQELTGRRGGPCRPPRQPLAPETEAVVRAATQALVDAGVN
# MEASUREMENT_NOTES: In vitro inhibition of dihydrodipicolinic acid synthase.
Examples of molecules with documented pIC50 follow.
pIC50 (log units): -log10 of the concentration in mol/L.

// below: answered molecules
O=C(O)c1cccc(C(=O)O)n1 [DIPICOLINIC ACID] ... 3.40
O=C(O)c1cccc[n+]1[O-] ... 3.10
COC(=O)[C@@H]1CCC[C@@H](C(=O)OC)N1 ... 2.28
COC(=N)c1cccc(C(=N)OC)n1 ... 3.70
O=NN1CCCCC1C(=O)O (stereo not given) ... 2.46
COC(=O)[C@@H]1CCC[C@H](C(=O)OC)N1 ... 3.15
COC(=O)[C@@H]1CCC[C@@H](C(=O)OC)N1C ... 3.15
N#C[C@@H]1CCC[C@H](C#N)N1 ... 2.13

Problem: Quick one: pIC50 for O=C(O)c1cccc(C(=O)O)[n+]1[O-] ?
Solution: 3.70

Problem: Quick one: pIC50 for N=C[C@@H]1CCC[C@H](C=N)N1 ?
Solution: 2.14
